Attribute: Ki
- targetUnderTest: Carbonic anhydrase 9 (Homo sapiens)
Your answer should be a plain number; it is taken to be in nM.

Consider the reported Ki for these compounds:
> print(dat)
                             chemicalstring  numericvalue
1  NS(=O)(=O)c1ccc(C(=O)N2CCN(C(=O)c3ccccc3Cl)CC2)cc1          62.2
2  NS(=O)(=O)c1ccc(C(=O)N2CCN(C(=O)c3ccccc3F)CC2)cc1          68.7

Bench note, Carbonic anhydrase 9 (Homo sapiens): COc1cccc(C(=O)N2CCN(C(=O)c3ccc(S(N)(=O)=O)cc3)CC2)c1 , Ki reads 360

Bench note, Carbonic anhydrase 9 (Homo sapiens): NS(=O)(=O)c1ccc(C(=O)N2CCN(C(=O)c3ccc(Cl)cc3)CC2)cc1 , Ki reads 29.2

Bench note, Carbonic anhydrase 9 (Homo sapiens): COc1ccccc1C(=O)N1CCN(C(=O)c2ccc(S(N)(=O)=O)cc2)CC1 , Ki reads 250

Bench note, Carbonic anhydrase 9 (Homo sapiens): NS(=O)(=O)c1ccc(C(=O)N2CCN(C(=O)c3cccc(Cl)c3)CC2)cc1 , Ki reads 54.4

Bench note, Carbonic anhydrase 9 (Homo sapiens): Nc1ccc(C(=O)N2CCN(C(=O)c3ccc(S(N)(=O)=O)cc3)CC2)cc1 , Ki reads 14.3

Bench note, Carbonic anhydrase 9 (Homo sapiens): Nc1ccccc1C(=O)N1CCN(C(=O)c2ccc(S(N)(=O)=O)cc2)CC1 , Ki reads 19.1

====

Attribute: pKi
- targetUnderTest: Carbonic anhydrase 2 (Homo sapiens, UniProt P00918)
- methodSummary: Inhibition of human CA2 preincubated for 15 mins by stopped-flow carbon dioxide hydration assay
Note on pKi: it is the negative log10 of concentration, concentration in mol/L.

Consider the reported pKi for these molecules:
> print(dat)
                             chemicalstring  numericvalue
1  NS(=O)(=O)c1ccc(C(=O)N2CCN(C(=O)c3cccc(Cl)c3)CC2)cc1          7.65
2  NS(=O)(=O)c1ccc(C(=O)N2CCN(C(=O)c3cccc(F)c3)CC2)cc1          9.39
3  NS(=O)(=O)c1ccc(C(=O)N2CCN(C(=O)c3cccc([N+](=O)[O-])c3)CC2)cc1          7.54
4  NS(=O)(=O)c1ccc(C(=O)N2CCN(C(=O)c3ccc(Br)cc3)CC2)cc1          8.36

Record summary for COc1ccccc1C(=O)N1CCN(C(=O)c2ccc(S(N)(=O)=O)cc2)CC1 : reported pKi = 7.70

Cited source: ChEMBL document CHEMBL4602738
